# assay system: murine MEKK2 (mMEKK2) (Mus musculus)
# Sequence (Q61083 whole entry): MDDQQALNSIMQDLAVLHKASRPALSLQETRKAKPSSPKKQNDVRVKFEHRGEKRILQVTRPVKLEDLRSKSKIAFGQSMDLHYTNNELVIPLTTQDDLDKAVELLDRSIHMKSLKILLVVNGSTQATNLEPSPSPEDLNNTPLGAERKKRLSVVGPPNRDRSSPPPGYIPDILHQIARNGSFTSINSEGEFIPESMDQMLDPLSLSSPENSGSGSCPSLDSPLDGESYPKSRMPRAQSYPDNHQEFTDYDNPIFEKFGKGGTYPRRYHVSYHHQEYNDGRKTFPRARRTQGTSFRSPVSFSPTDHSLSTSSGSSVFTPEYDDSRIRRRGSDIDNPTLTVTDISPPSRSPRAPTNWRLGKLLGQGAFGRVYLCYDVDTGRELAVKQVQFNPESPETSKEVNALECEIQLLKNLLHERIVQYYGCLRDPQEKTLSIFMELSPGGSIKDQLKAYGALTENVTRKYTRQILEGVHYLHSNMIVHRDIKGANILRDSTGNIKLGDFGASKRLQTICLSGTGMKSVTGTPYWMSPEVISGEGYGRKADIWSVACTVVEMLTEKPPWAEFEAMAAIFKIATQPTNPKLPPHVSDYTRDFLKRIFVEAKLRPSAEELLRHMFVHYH
# assay explanation: TR-FRET kinase assay (mMEKK2/MBP)
# Type: biochemical
# test parameters: substrate biotin MBP, 60 minutes at room temperature
pIC50: −log10 of the molar value.
Some molecules, each annotated with its measured pIC50.
observed property: pIC50

[[record]]
sample_smiles = "COc1cccc(-c2nc(SCc3cccc(NC[C@H]4CCCN4C(=O)OC(C)(C)C)c3)[nH]c(=O)c2C#N)c1"
observed_property = "pIC50"
result = "> 4.70"

[[record]]
sample_smiles = "COc1cccc(-c2nc(SCc3ccc(NC(=O)C4CCN(c5nccc(C(F)(F)F)n5)CC4)cc3)[nH]c(=O)c2C#N)c1"
observed_property = "pIC50"
result = "< 4.40"

[[record]]
sample_smiles = "COc1cccc(-c2nc(SCc3ccc(NC(=O)c4cccc(OC(F)(F)F)c4)cc3)[nH]c(=O)c2C#N)c1"
observed_property = "pIC50"
result = "> 5.30"

[[record]]
sample_smiles = "COc1cccc(-c2nc(SCc3cccc(NCc4coc5cc(C)cc(C)c5c4=O)c3)[nH]c(=O)c2C#N)c1"
observed_property = "pIC50"
result = "> 5.30"


###

# assay system: UniProt Q61083
# assay explanation: TR-FRET kinase assay (mMEKK2/MBP)
# Type: biochemical
# test parameters: substrate biotin MBP, 60 minutes at room temperature
observed property: IC50

[[record]]
compound = "COc1cccc(-c2nc(SCc3ccc(NC(=O)NC4CCNCC4)cc3)[nH]c(=O)c2C#N)c1 [Example 3bb]"
result = "> 40 µM"

[[record]]
compound = "COc1cccc(-c2nc(SCc3ccc(NC(=O)c4cccc(C(F)(F)F)c4)cc3)[nH]c(=O)c2C#N)c1 [Example 2ss]"
result = "< 5 µM"

[[record]]
compound = "COc1cccc(-c2nc(SCc3ccc(NC(=O)c4ccc(-c5ccccn5)s4)cc3)[nH]c(=O)c2C#N)c1 [Example 2lll]"
result = "< 5 µM"

[[record]]
compound = "COc1cccc(-c2nc(SCc3cccc(NCc4nc5ccccc5n4C)c3)[nH]c(=O)c2C#N)c1 [Example 1g]"
result = "< 40 µM"


###

# assay system: murine MEKK2 (mMEKK2) (Mus musculus)
# assay explanation: TR-FRET kinase assay (mMEKK2/MBP)
# Assay type: biochemical
# test parameters: substrate biotin MBP, 60 minutes at room temperature
observed property: IC50

[[record]]
sample_smiles = "COc1cccc(-c2nc(SCc3cccc(NC(=O)c4cc5ccccc5s4)c3)[nH]c(=O)c2C#N)c1"
assay_system = "murine MEKK2 (mMEKK2) (Mus musculus)"
result = "< 5 µM"

[[record]]
sample_smiles = "COc1cccc(-c2nc(SCc3cccc(NC(=O)c4cc(Cl)nc(OC)c4)c3)[nH]c(=O)c2C#N)c1"
assay_system = "murine MEKK2 (mMEKK2) (Mus musculus)"
result = "< 10 µM"

[[record]]
sample_smiles = "COc1cccc(-c2nc(SCCCCCn3cnc4c(NCc5ccccc5)ncnc43)[nH]c(=O)c2C#N)c1"
assay_system = "murine MEKK2 (mMEKK2) (Mus musculus)"
result = "> 40 µM"

[[record]]
sample_smiles = "COc1cccc(-c2nc(SCc3cccc(NCc4cccc(Oc5ccccc5)c4)c3)[nH]c(=O)c2C#N)c1"
assay_system = "murine MEKK2 (mMEKK2) (Mus musculus)"
result = "< 1 µM"

[[record]]
sample_smiles = "COc1cccc(-c2nc(SCc3cccc(NCc4cccc(Oc5ccc(Cl)cc5)c4)c3)[nH]c(=O)c2C#N)c1"
assay_system = "murine MEKK2 (mMEKK2) (Mus musculus)"
result = "< 1 µM"

[[record]]
sample_smiles = "COc1cccc(-c2nc(SCc3ccc(NC(=O)c4ccc(F)c(C(F)(F)F)c4)cc3)[nH]c(=O)c2C#N)c1"
assay_system = "murine MEKK2 (mMEKK2) (Mus musculus)"
result = "< 5 µM"

[[record]]
sample_smiles = "COc1cccc(-c2nc(SCc3cccc(NCC4CCOCC4)c3)[nH]c(=O)c2C#N)c1"
assay_system = "murine MEKK2 (mMEKK2) (Mus musculus)"
result = "> 40 µM"

[[record]]
sample_smiles = "COc1cccc(-c2nc(SCc3cccc(NCC4CCN(c5ccncc5)CC4)c3)[nH]c(=O)c2C#N)c1"
assay_system = "murine MEKK2 (mMEKK2) (Mus musculus)"
result = "> 40 µM"

[[record]]
sample_smiles = "COc1cccc(-c2nc(SCc3ccc(NC(=O)Nc4cc(C(F)(F)F)cc(C(F)(F)F)c4)cc3)[nH]c(=O)c2C#N)c1"
assay_system = "murine MEKK2 (mMEKK2) (Mus musculus)"
result = "< 1 µM"

[[record]]
sample_smiles = "COc1cccc(-c2nc(SCc3cccc(NC(=O)c4cccc(C(F)(F)F)c4)c3)[nH]c(=O)c2C#N)c1"
assay_system = "murine MEKK2 (mMEKK2) (Mus musculus)"
result = "< 5 µM"

[[record]]
sample_smiles = "COc1cccc(-c2nc(SCc3ccc(NC(=O)Nc4c(Cl)cccc4Cl)cc3)[nH]c(=O)c2C#N)c1"
assay_system = "murine MEKK2 (mMEKK2) (Mus musculus)"
result = "> 40 µM"

[[record]]
sample_smiles = "COc1cccc(-c2nc(SCc3cccc(NC(=O)c4cc(C)nn4C(C)(C)C)c3)[nH]c(=O)c2C#N)c1"
assay_system = "murine MEKK2 (mMEKK2) (Mus musculus)"
result = "< 40 µM"

[[record]]
sample_smiles = "COc1cccc(-c2nc(SCc3cccc(NC(=O)NCCc4cccs4)c3)[nH]c(=O)c2C#N)c1"
assay_system = "murine MEKK2 (mMEKK2) (Mus musculus)"
result = "< 5 µM"

[[record]]
sample_smiles = "CCCc1c(C(=O)Nc2ccc(CSc3nc(-c4cccc(OC)c4)c(C#N)c(=O)[nH]3)cc2)cnn1-c1ccc(Cl)cc1"
assay_system = "murine MEKK2 (mMEKK2) (Mus musculus)"
result = "< 1 µM"

[[record]]
sample_smiles = "COc1cccc(-c2nc(SCc3cccc(NC(=O)c4ccc(Cl)c(Cl)c4)c3)[nH]c(=O)c2C#N)c1"
assay_system = "murine MEKK2 (mMEKK2) (Mus musculus)"
result = "< 5 µM"

[[record]]
sample_smiles = "N#Cc1c(-c2ccc(C(F)(F)F)cc2)nc(SCc2cccc(NC(=O)c3ccc(Cl)c(Cl)c3)c2)[nH]c1=O"
assay_system = "murine MEKK2 (mMEKK2) (Mus musculus)"
result = "< 5 µM"

[[record]]
sample_smiles = "COc1ccc(-c2nc(SCc3cccc(NCc4ccc(Cl)c(Cl)c4)c3)[nH]c(=O)c2C#N)cc1-c1cccs1"
assay_system = "murine MEKK2 (mMEKK2) (Mus musculus)"
result = "< 5 µM"

[[record]]
sample_smiles = "COc1cccc(-c2nc(SCc3cccc(NC(=O)Cc4ccc(Cl)cc4)c3)[nH]c(=O)c2C#N)c1"
assay_system = "murine MEKK2 (mMEKK2) (Mus musculus)"
result = "< 5 µM"

[[record]]
sample_smiles = "COc1cccc(-c2nc(SCc3ccc(NC(=O)c4ccc(Cl)c(Cl)c4)cc3)[nH]c(=O)c2C#N)c1"
assay_system = "murine MEKK2 (mMEKK2) (Mus musculus)"
result = "< 1 µM"

[[record]]
sample_smiles = "COc1cccc(-c2nc(SCc3cccc(NCc4cc(C)c(C)o4)c3)[nH]c(=O)c2C#N)c1"
assay_system = "murine MEKK2 (mMEKK2) (Mus musculus)"
result = "< 5 µM"

[[record]]
sample_smiles = "N#Cc1c(-c2cccc(C(F)(F)F)c2)nc(SCc2cccc(NC(=O)c3ccc(Cl)c(Cl)c3)c2)[nH]c1=O"
assay_system = "murine MEKK2 (mMEKK2) (Mus musculus)"
result = "> 40 µM"

[[record]]
sample_smiles = "COc1cccc(-c2nc(SCc3ccc(NC(=O)Nc4cc([N+](=O)[O-])ccc4F)cc3)[nH]c(=O)c2C#N)c1"
assay_system = "murine MEKK2 (mMEKK2) (Mus musculus)"
result = "< 10 µM"

[[record]]
sample_smiles = "COc1cccc(-c2nc(SCc3cccc(NCc4ccc5nsnc5c4)c3)[nH]c(=O)c2C#N)c1"
assay_system = "murine MEKK2 (mMEKK2) (Mus musculus)"
result = "< 10 µM"

[[record]]
sample_smiles = "COc1cccc(-c2nc(SCc3cccc(NCc4ccc(-n5ccnc5)cc4)c3)[nH]c(=O)c2C#N)c1"
assay_system = "murine MEKK2 (mMEKK2) (Mus musculus)"
result = "< 20 µM"

[[record]]
sample_smiles = "N#Cc1c(-c2ccccc2C(F)(F)F)nc(SCc2cccc(NC(=O)c3ccc(Cl)c(Cl)c3)c2)[nH]c1=O"
assay_system = "murine MEKK2 (mMEKK2) (Mus musculus)"
result = "< 10 µM"

[[record]]
sample_smiles = "COc1cccc(-c2nc(SCc3ccc(NC(=O)Nc4cccc5nsnc45)cc3)[nH]c(=O)c2C#N)c1"
assay_system = "murine MEKK2 (mMEKK2) (Mus musculus)"
result = "< 1 µM"

[[record]]
sample_smiles = "COc1cccc(-c2nc(SCc3ccc(NC(=O)c4ccc(C(F)(F)F)cc4C(F)(F)F)cc3)[nH]c(=O)c2C#N)c1"
assay_system = "murine MEKK2 (mMEKK2) (Mus musculus)"
result = "< 5 µM"

[[record]]
sample_smiles = "COc1cccc(-c2nc(SCc3ccc(NC(=O)Nc4cc(F)cc5c4OCOC5)cc3)[nH]c(=O)c2C#N)c1"
assay_system = "murine MEKK2 (mMEKK2) (Mus musculus)"
result = "< 5 µM"

[[record]]
sample_smiles = "COc1cccc(-c2nc(SCc3cccc(NC(=O)Cc4ccccc4)c3)[nH]c(=O)c2C#N)c1"
assay_system = "murine MEKK2 (mMEKK2) (Mus musculus)"
result = "< 10 µM"


Where do the numbers come from? From patent US20060100226A1.
